ASSAY_OVERVIEW: Acute (single administration) toxicity test in rats
Type: in vivo, SD rats
ASSAY_CONDITIONS: in vivo, sc, subcutaneous, Rat M, medium 5% gum arabic
Description: Next, the results of the acute toxicity test of 2-methyl-3-[(2E,6E,10E)-3,7,11,15-tetramethyl-2,6,10,14-hexadecatetraenyl]naphthoquinone (generic name: vitamin K2), which is a typical example of the compound of the present invention, will be given. An acute toxicity test was conducted as follows: […]
VALUE_TYPE: LD50

(Q) Please give measured LD50 of the following entry: CC(C)=CCC/C(C)=C/CC/C(C)=C/CC/C(C)=C/CC1=C(C)C(=O)c2ccccc2C1=O [vitamin K2]
(A) > 5000 mg/kg

These measurements were taken from patent EP0679394B1.
